system: KM12; experiment: NCI tumour cell line growth inhibition, 48 h
Calls of active or inactive are those of the source. Rule as the data show it: active = GI50 up to about 1.1 µM and inactive = higher.
Mark one answer only. Choices: yes (1) = active, no (0) = inactive

Recorded test call requested for N[C@H]1C2C3CC4C5CC(C42)C1(c1ccccc1)C53 (stereo not given in full)
no (0)

Could you please tell me the result logged for COc1ccc(Nc2nc(N)c(C(=O)c3ccc(Cl)cc3)s2)cc1 in this assay?
yes (1)

Outcome? N#C/C(=C1C=C(Br)/C(=N\O)C=C\1Cl)c1cccc2ccccc12
no (0)

Hi, sorry to bother you, what did the test record for O=C(Nc1ccccc1)c1cc(S(=O)(=O)N2CCNNC2=O)c(S)cc1Cl ?
no (0)

Fill in: this test's call for Nc1c(S(=O)(=O)O)cc(Nc2cccc(S(=O)(=O)/C=C/S(=O)(=O)O)c2)c2c1C(=O)c1ccccc1C2=O is ___
no (0)

What is the recorded call for this compound in the test? CCOC(=O)C1=C(Nc2ccc(Cl)c(Cl)c2)OC/C1=N\NS(=O)(=O)c1ccc(C)cc1
no (0)

For CCOC(=O)c1c(N2CCCC2)nsc1Nc1ccccc1 , which call appears in the assay record?
no (0)

Any idea what this test logged for C=Nc1ccc([N+](=O)[O-])cc1 ?
no (0)

What classification did C[C@]12CCC(=O)C(O)=C1CC[C@@H]1C2CC[C@]2(C)NC(=O)CCC12 (stereo not given in full) end up with in this test?
no (0)

State the result this test recorded for Cc1cc(=O)oc2cc(OC(=O)N(C)C)c(Cl)cc12 .
no (0)

====

system: PC-3; test: NCI tumour cell line growth inhibition, 48 h
Calls of active or inactive are those of the source. Cut-off read from the data, not from the text of the source: active = GI50 up to about 1.1 µM and inactive = higher.
quantity: GI50

Can you look up the measured GI50 of N#Cc1c(-c2ccccc2)c(C#N)c(=S)n(C2OC(CO)C(O)C(O)C2O)c1O (stereo not given) for me?
> 100 µM (inactive)

Item O=c1[nH]c2c(c(=O)[nH]1)SC(c1ccccc1)C2 (stereo not given) has what recorded GI50?
> 100 µM (inactive)

Param item = COC(=O)[C@H](C)N(C)C(=O)[C@H](C)N1[C@@H](c2ccccc2)COC1(C)C ; retrieve measured GI50.
> 100 µM (inactive)

Param item = Cc1ccc(Sc2ccccc2C23OC(C)(C4C(=O)N(c5ccccc5)C(=O)C42)N(C)C3=O)cc1 (stereo not given) ; retrieve measured GI50.
> 100 µM (inactive)

Which GI50 is reported for this compound? O=C1c2cccc3cccc(c23)C(=O)N1CCCNCCCNCCCCNCCCNCCCN1C(=O)c2cccc3cccc(c23)C1=O
3.23 µM (inactive)

Consider the compound COc1cc2ncnc(Nc3cccc(Br)c3)c2cc1OC and give its measured GI50.
3.77 µM (inactive)

Record request: GI50 value, item CN1CC[C@]23c4c5ccc(O)c4OC2c2[nH]ncc2C[C@H]3[C@H]1C5 (stereo not given in full)
> 100 µM (inactive)

Item CN(C)CS/C(N)=N\C(O)C(Cl)(Cl)Cl (stereo not given) has what recorded GI50?
> 100 µM (inactive)

Recorded GI50 of Nc1nc(F)nc2c1ncn2C1OC(CO)C(O)C1O (stereo not given) , please.
30.5 µM (inactive)

Please look up its GI50: C=C1CC(c2ccc(OCCCN3C(=O)c4ccccc4C3=O)c(OC)c2)OC1=O (stereo not given)
12.4 µM (inactive)

For the compound Nc1ccc2nc3c(nc2c1)C(=O)c1ccccc1-3 , what GI50 is on record?
> 100 µM (inactive)

Any idea what its GI50 is? The compound is O=C(NCCc1ccc(F)cc1)c1cc(/C=C/c2cc(O)ccc2O)ccc1O
2.96 µM (inactive)

Can you share its GI50? I mean this compound: CC(NC(=O)/C(C#N)=C/c1ccc2[nH]ccc2c1)c1ccccc1 (stereo not given)
20.3 µM (inactive)

Returns the measured GI50 for the input compound. Input: Cc1c(C2=C(Br)C(=O)N(C)C2=O)c(=O)n(C)c(=O)n1C
23.6 µM (inactive)

Which GI50 value belongs to O=C(Nc1ccccc1)N1N=C(c2ccccc2)C1c1ccccc1 (stereo not given) ?
18.8 µM (inactive)

# get_value(readout='GI50', item= CCCOC(=O)c1cc(O)c(O)c(O)c1 [PROPYL GALLATE] )
18.7 µM (inactive)

Need GI50, item FC(F)(F)c1cc(Cl)cnc1N/N=C(/c1ccccc1)c1ccccn1
3.54 µM (inactive)

What GI50 value was documented for this compound, CC(=O)NC1C(OCc2ccccc2)OC(CO)C(O)C1OC(C)C(=O)NC(C(=O)NC(CCC(=O)NCCCNc1ccc([N+](=O)[O-])c2[nH]c3ccccc3c(=O)c12)C(N)=O)C(C)C (stereo not given) ?
> 100 µM (inactive)

I am curious: what GI50 value has been reported for O=C(NNC(c1ccccc1)C(F)(F)F)c1ccncc1 (stereo not given) ?
> 100 µM (inactive)

Recorded GI50 of C[C@]12CC/C(=N\OCCN3CCCCC3)C=C1CCC1C2CC[C@@]2(C)C1CC[C@]2(C)O (stereo not given in full) , please.
10.8 µM (inactive)

====

tested on: ACHN; assay: NCI tumour cell line growth inhibition, 48 h
Activity calls are given as the source filed them. Rule as the data show it: active = GI50 up to about 1.1 µM and inactive = higher.
Return exactly one item of active, inactive

Given CCOC(=O)C(C)(c1cn(C)c2ccccc12)c1cn(C)c2ccccc12 , state the outcome it received in this test.
inactive

What classification did CCCN(CCC)c1c([N+](=O)[O-])cc(C(=O)N(C)C)cc1[N+](=O)[O-] end up with in this test?
inactive

Status in this test for C=C1C(NC)CCC23CC24CCC2(C)C(C(C)=O)C(O)CC2(C)C4CCC13 (configuration not stated) ?
inactive

Any idea what this test logged for COc1cc(C(=O)N[C@H]2CCc3cc(OC)c(OC)c(OC)c3-c3ccc(SC)c(=O)cc32)cc(OC)c1OC ?
active

Each molecule tested received a call. Report the one for CC(C)(C)c1ccc(OCCOCCOc2ccc(C(C)(C)C)cc2S(=O)(=O)Nc2ccc([N+](=O)[O-])cc2)c(S(=O)(=O)Nc2ccc([N+](=O)[O-])cc2)c1 .
inactive

Answer briefly: the call reported for c1ccc(C[N+]23C(CC[C@H]2c2ccccc2)CC[C@H]3c2ccccc2)cc1 (some centres not stated) in this assay.
inactive

Outcome logged for O=[N+]([O-])c1cc(Cl)cc2c1nc(NCCO)c1ccccc12 in this assay:
inactive

I would be grateful if you could indicate the recorded call for CCOC(=O)Cc1nc(/C(C#N)=C/c2ccco2)[nH]c(=O)c1C#N .
inactive

Given Cc1ccc(-n2cc(-c3ccc(Cl)cc3)c3c(NN)ncnc32)cc1 , state the outcome it received in this test.
inactive

Tell me the recorded outcome of this test for N#CCCC1C(C#N)C2CC1C1C3C=CC(C3)C21 (configuration not stated) .
inactive

GET /call?item= O=C(O)CCC1NC(/C(=C/c2ccccc2O)NC(=O)c2ccccc2)OC1=O (configuration not stated) returns the recorded outcome of this test.
inactive

Any idea what this test logged for Cc1ccc2nc3sc(=O)sc3nc2c1 [CHINOMETHIONAT] ?
inactive

====

What GI50 was measured for each of the following?
system: SF-295; experiment: NCI tumour cell line growth inhibition, 48 h
Activity calls are given as the source filed them. Rule as the data show it: active = GI50 up to about 1.1 µM and inactive = higher.

Give the reported GI50 for Oc1cc2c(cc1O)-c1[nH]ncc1CC2 (system: SF-295).
49.1 µM (inactive)

Give GI50 (SF-295) of the following molecule: C=CC[C@H](O)[C@@](NC(=O)OCc1ccccc1)(Sc1ccc(C)cc1)C(F)(F)F
21.9 µM (inactive)

Hello, I am looking for reported GI50 with SF-295 for CN(CCCNC(=O)c1nn(C)c2c1Cc1ccccc1-2)CCCNC(=O)c1nn(C)c2c1Cc1ccccc1-2 . Could you help?
18.2 µM (inactive)

Observed GI50 on SF-295 for CC(=O)Nc1ccc(Nc2cc(O)nc(O)n2)cc1 , please.
> 100 µM (inactive)

====

test system: NCI-H522; assay: NCI tumour cell line growth inhibition, 48 h
Activity calls are given as the source filed them. Cut-off read from the data, not from the text of the source: active = GI50 up to about 1.1 µM and inactive = higher.
quantity: GI50

Looking for the measured GI50 of COc1ccc(C2C(N)=NCC2c2ccccn2)cc1 (stereo not drawn) , can you help?
> 100 µM (inactive)

Need GI50 of Clc1ccc(CCc2ccncn2)c(Cl)c1 , thanks.
37.7 µM (inactive)

So what does the record say about GI50 for CC[C@]12C=CCN3CC[C@@]4(c5cc(N=O)c(OC)cc5N(C)[C@H]4[C@@](O)(C(=O)OC)[C@@H]1OC(C)=O)[C@@H]32 ?
18.5 µM (inactive)

May I ask what GI50 has been recorded for O=C1CN(C(=O)c2ccccc2)Cc2[nH]c3ccccc3c21 ?
> 100 µM (inactive)

What GI50 value was documented for this compound, COC1C(O)CC(OC2C(C)OC(Oc3cc(O)c4c(O)c5c(cc4c3)C[C@@H]([C@H](OC)C(=O)[C@@H](O)[C@@H](C)O)[C@H](OC3CC(OC4CC(OC6CC(C)(O)C(O)C(C)O6)C(O)C(C)O4)C(O)C(C)O3)C5=O)CC2OC(C)=O)OC1C (stereo partly drawn) ?
39.1 µM (inactive)

Looking for the measured GI50 of C=Cc1cc2c(cc1O)CC[C@@H]1[C@@H]2CC[C@]2(C)[C@@H](O)CC[C@@H]12 , can you help?
4.66 µM (inactive)

Name the reported GI50 value associated with the compound O=C1CCC(=O)N1n1c(Cc2ccc(Cl)cc2)n[nH]c1=O
> 100 µM (inactive)

Record request: GI50 value, item O=C1c2cc3ncsc3cc2C(=O)c2c(O)ccc(O)c21
> 100 µM (inactive)

Reference source for all entries: ChEMBL document CHEMBL1201862
